- Test system: Mycobacterium tuberculosis
- test.description: Antimycobacterial activity against Mycobacterium tuberculosis
- Assay type: functional
Item-by-item account of MIC
metric: MIC (µg/mL)

* CC(C)(O)c1ccc2c(c1)CC[C@H]1[C@](C)(C(=O)O)CCC[C@]21C | 50
* COc1c(O)cc2oc3cc(O)c(CC=C(C)C)c(O)c3c(=O)c2c1CC=C(C)C | 15.2
* CC(C)[C@]12C=C3CC[C@H]4[C@](C)(C(=O)O)CCC[C@]4(C)[C@]3(CC1)OO2 | 50
* C[C@@H]1C[C@H](C)C(=O)/C=C/C2[C@@H](O)C3OC4=C(C(=O)O[C@@]42C[C@H]3C)C1=O (stereo in doubt; 208) | 8.3
* COc1cccc2c1C(=O)c1nccc3cc4c(c-2c13)OCO4 | 50

###

- test.description: Inhibition of Mycobacterium tuberculosis RNA polymerase
pIC50: −log10 of the molar value.
Item-by-item account of pIC50
metric: pIC50

* C/C(=C\Cc1ccccc1)CC[C@@]1(O)C[C@H]2C[C@@H](C/C(C)=C/C/C=C/C/C(CC(=O)O)=C\C(=O)O2)O1 [RIPOSTATIN A] | 6.10
* C/C=C/C/C=C(\C)C(O)CC/C(C)=C/C=C(\C)C(=O)c1c(O)cc([C@H](C)CC/C=C/NC(=O)OC)oc1=O (stereo partly drawn) [CORALLOPYRONIN A] | 5.40
* CCC/C(C)=C/C=C(\C)C(=O)c1c(O)cc([C@H](C)CC/C=C/NC(=O)OC)oc1=O [MYXOPORIN A] | 6.00

###

- System: Mycobacterium tuberculosis
- test.description: Antimycobacterial activity against Mycobacterium tuberculosis
- Format: functional
Item-by-item account of MIC
metric: MIC (µM)

• CC(=O)OC[C@H]1O[C@@H](Oc2cccc3c2C(=O)c2c(O)cc(C)cc2C3=O)[C@H](O)[C@@H](O)[C@@H]1O = 4.1
• COc1cc(O)c2c(O)c(C(C)=O)c(C)cc2c1 = 6.1
• COc1cc(O[C@@H]2O[C@H](CO)[C@@H](O)[C@H](O)[C@H]2O)c2c(O)c(C(C)=O)c(C)cc2c1 = 8.9
